target: GABAA receptors (picrotoxin binding site)
Construct: other: duplicate experiments performed in triplicate; ± SEM; other: Hill coefficient
assay.notes: [35S]-TBPS displacement (non-competitive displacement from the picrotoxin binding site)
condition.context: duplicate experiments performed in triplicate; ± SEM; read-out: Inhibition of [35S]-TBPS binding, IC50
pIC50: −log10 of the molar value.
Reported pIC50 values are given for each entry in this list.
reported.metric: pIC50

[[record]]
molecule = "COC[C@]12CC[C@@H](O)C[C@@H]1CC[C@@H]1[C@@H]2CC[C@]2(C)/C(=C\\C#N)CC[C@@H]12"
reported_metric = "pIC50"
test_result = 7.38

[[record]]
molecule = "COC[C@]12CC[C@@H](O)C[C@@H]1CC[C@@H]1[C@@H]2CC[C@]2(C)/C(=C/C#N)CC[C@@H]12"
reported_metric = "pIC50"
test_result = 6.18

